- system under test: Cbx5 chromodomain, Cbx5-(18–75) (human, UniProt P45973 18-75)
- Sequence (P45973 18-75): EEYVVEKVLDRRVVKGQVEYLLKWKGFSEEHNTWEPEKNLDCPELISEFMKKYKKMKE
- experimental details: fluorescence polarisation
recorded metric: Kd (µM)

- binder: "ARTKQTARKSTGGKA (trimethyllysine at 9; fluorescein on the N-terminus) [H3K9Me3 peptide (ARTKQTARK(me3)STGGKA), fluorescein-labeled]"
  units text: "µM"
  reported value: 30
